- System: MS2 coat protein
- procedure.summary: apparent KD of MS2 coat protein; higher = weaker reporter binding
- condition.description: Eterna round: R107; input ligand: tryptophan 2.4 mM

- residue.codes: "UGAGUUAGACAAAAGUCUAGCUCUGGUGAAGGAGCGUCCGAAAGGACAGGUAGGUCGCACCACAUGAGCAUCAGCCAUGUUCCUU [ArgAS 23 #OpenEnded #AlternativeMS2]"
  apparent KD of MS2 coat protein: "16.8 nM"
- residue.codes: "AGCUUGUAGUCGGCCGCCACUAAUAGGGAUCCUAUCGAGGCGGGUAACAUGAGGAUCACCCAUGUUAGGACCGGGACAGCGAGGA [Cetian]"
  apparent KD of MS2 coat protein: "10.8 nM"
- residue.codes: "UUAUUUAUAAUGGAUACCAGUCGUAUGGCCCGGAAUCCUGACAUGAGGAUCACCCAUGUCGACCCUUGGCAGCUGUUAUGGGUUU [XTheo B #22]"
  apparent KD of MS2 coat protein: "14.9 nM"
- residue.codes: "ACAUGAGGAUCACCCAUGUAAAUAGCGGAAGGAGCGUGCAAAAGCACAGGUAGGUCGCCGAUAUAAUAAUUGGGUAAUAUAUUAU [#27 Exclusion - Arginine A]"
  apparent KD of MS2 coat protein: "26.9 nM"
- residue.codes: "AGUAAUCUAAGAGAUACCAGACGGUAUAUAACAUGAGGAUCACCCAUGUUUUGGGUGUACGUCCCUUGGCAGCUCAAAAUGAUAA [#06 Same State - Theophylline B]"
  apparent KD of MS2 coat protein: "382 nM"
- residue.codes: "GCACCAGGUACGGAUACCAGCUAUAGGUACAUGUCAGGACAUGAGGAUCACCCAUGUGGUAGCCCUUGGCAGCUGUACCUGGUGC [EThB NP+V+V2 #2]"
  apparent KD of MS2 coat protein: "19.1 nM"
